Tested on: MDA-MB-453
experimental.details: Inhibition of estrogen receptor negative MDA-MB-453 breast cancer cell proliferation
Format: functional, cell-based
condition.set: Homo sapiens
pIC50: −log10 of the molar value.
measured.quantity: pIC50

Asked: If you can, please state the reported pIC50 value of Nc1ccc(-c2cc(=O)c3c(N)cccc3o2)cc1 .
Given back: < 5.30

====

Tested on: MCF7
experimental.details: cells
Type: functional, cell-based
condition.set: Homo sapiens
Description: Anti-proliferative activity against estrogen-responsive human breast cancer cell line MCF-7 in the presence of ER at a 10e-4 uM concentration of estradiol
pIC50: −log10 of the molar value.
Use true when the recorded pIC50 is no lower than 8; use false when it is lower.

compound: CCN(CC)c1ccc(-c2cc(=O)c3c(N)cccc3o2)cc1
assigned.category: true
--
compound: CCCCCCNc1ccc(-c2cc(=O)c3c(N)cccc3o2)cc1
assigned.category: false
--
compound: CN(C)c1ccc(-c2cc(=O)c3c(N)cccc3o2)cc1
assigned.category: true

Asked: Has Nc1cccc2oc(-c3ccc(Br)cc3)cc(=O)c12 a recorded pIC50 greater than or equal to 8?
Given back: false

Asked: Dear colleague, could you confirm whether CCCCNc1ccc(-c2cc(=O)c3c(N)cccc3o2)cc1 has pIC50 at or above 8?
Given back: true

Asked: hey, is pIC50 for this one >= 8? Nc1cccc2oc(-c3ccc(C(=O)O)cc3)cc(=O)c12
Given back: false

Asked: Does the compound CNc1ccc(-c2cc(=O)c3c(N)cccc3o2)cc1 have recorded pIC50 that is 8 or more?
Given back: true

Asked: Record CN(C)c1ccc(-c2cc(=O)c3cccc(N)c3o2)cc1 ; criterion: pIC50 no lower than 8. Met?
Given back: false

Asked: For this compound, is measured pIC50 8 or higher? Nc1cccc(-c2cc(=O)c3c(N)cccc3o2)c1
Given back: false

Asked: Hi team, for O=c1cc(-c2ccc(O)cc2)oc2cc(O)cc(O)c12 [APIGENIN] , is the recorded pIC50 at or above 8?
Given back: false

Asked: Reported pIC50 reaches at least 8 for COc1ccc(-c2cc(=O)c3c(N)cccc3o2)cc1 ?
Given back: false

====

Reported pIC50 values are given for each entry in this list.
Test system: MCF7
experimental.details: cells
Format: functional, cell-based
condition.set: Homo sapiens
Description: Inhibition of 10e-4 uM estradiol induced estrogen receptor positive MCF-7 human breast cancer cell proliferation
Units for pIC50: none; it is -log10 of a concentration expressed in mol/L.

test.smiles: CCNc1ccc(-c2cc(=O)c3c(N)cccc3o2)cc1
measured.quantity: pIC50
experimental.value: 8.77

test.smiles: CN(C)c1ccc(-c2cc(=O)c3ccc(N)cc3o2)cc1
measured.quantity: pIC50
experimental.value: 5.16

test.smiles: CCCNc1ccc(-c2cc(=O)c3c(N)cccc3o2)cc1
measured.quantity: pIC50
experimental.value: 8.06

test.smiles: N#Cc1ccc(-c2cc(=O)c3c(N)cccc3o2)cc1
measured.quantity: pIC50
experimental.value: 4.03

Query compound follows.
Asked: If you can, please state the reported pIC50 value of CNc1ccc(-c2cc(=O)c3c(N)cccc3o2)cc1 .
Given back: 8.27

====

System: MDA-MB-453
experimental.details: cells
condition.set: Homo sapiens
Description: Inhibition of estrogen receptor negative MDA-MB-453 breast cancer cell proliferation with 10e-4 M estradiol
measured.quantity: IC50

Asked: Record request: IC50 value, item CC/C(=C(\c1ccccc1)c1ccc(OCCN(C)C)cc1)c1ccccc1 [TAMOXIFEN]
Given back: > 5 µM

====

Test system: MCF7
experimental.details: cells
Assay type: functional, cell-based
condition.set: Homo sapiens
# reported pIC50; entries follow
# pIC50 is unitless: minus log10 of the molar concentration; print number only

See these solved cases before continuing.
test.smiles: CC/C(=C(\c1ccccc1)c1ccc(OCCN(C)C)cc1)c1ccccc1
experimental.value: 6.85
--
test.smiles: Nc1cccc2oc(-c3ccc(O)cc3)cc(=O)c12
experimental.value: 5.82
--
test.smiles: CN(C)c1ccc(-c2cc(=O)c3cc(N)ccc3o2)cc1
experimental.value: 7.89
--
test.smiles: O=c1c(-c2ccc(O)cc2)coc2cc(O)cc(O)c12
experimental.value: 4.96
--
test.smiles: CC(=O)Nc1ccc(-c2cc(=O)c3c(N)cccc3o2)cc1
experimental.value: 4.89

Asked: Data request, read-out pIC50, for CCNc1ccc(-c2cc(=O)c3c(N)cccc3o2)cc1
Given back: 8.89

Asked: Any idea what pIC50 was measured for Nc1cccc2oc(-c3ccccc3)cc(=O)c12 ?
Given back: 4.89

Asked: Item under review: CN(C)c1cccc(-c2cc(=O)c3cc(N)ccc3o2)c1 . Reported pIC50?
Given back: 4.89

Asked: # input molecule: Nc1cccc2oc(-c3ccc(NCc4ccccc4)cc3)cc(=O)c12 ; wanted: its pIC50
Given back: 5.39

Asked: Field request: pIC50 | item: CN(C)c1ccc(-c2cc(=O)c3ccc(N)cc3o2)cc1
Given back: 5.30

====

Test system: MCF7
experimental.details: cells
Assay type: functional, cell-based
condition.set: Homo sapiens
measured.quantity: IC50 (µM)
Form entry: value (µM) — number only.

The following compounds have reported results that may help.
test.smiles: CN(C)c1cccc(-c2cc(=O)c3cc(N)ccc3o2)c1
target.desc: MCF7
IC50, µM: 13
//
test.smiles: O=c1cc(-c2ccc(O)cc2)oc2cc(O)cc(O)c12
target.desc: MCF7
IC50, µM: 95
//
test.smiles: Nc1cccc2oc(-c3ccc(NCc4ccccc4)cc3)cc(=O)c12
target.desc: MCF7
IC50, µM: 4.3
//
test.smiles: CN(C)c1ccc(-c2cc(=O)c3c(N)cccc3o2)cc1
target.desc: MCF7
IC50, µM: 0.005

Asked: State the recorded IC50 for this entry: CCN(CC)c1ccc(-c2cc(=O)c3c(N)cccc3o2)cc1
Given back: 0.01

====

Test system: MCF7
experimental.details: cells
Assay type: functional, cell-based
condition.set: Homo sapiens
IC50 listing for selected compounds.
Expressed in µM, but write only the number.

In the examples that follow, each entry is paired with its recorded IC50.
test.smiles: Nc1ccc(-c2cc(=O)c3c(N)cccc3o2)cc1
target.desc: MCF7
measured.quantity: IC50
experimental.value: 0.0098
--
test.smiles: Nc1cccc2oc(-c3ccc(Br)cc3)cc(=O)c12
target.desc: MCF7
measured.quantity: IC50
experimental.value: 9.5
--
test.smiles: O=c1c(-c2ccc(O)cc2)coc2cc(O)cc(O)c12
target.desc: MCF7
measured.quantity: IC50
experimental.value: 77
--
test.smiles: CC(=O)Nc1ccc(-c2cc(=O)c3c(N)cccc3o2)cc1
target.desc: MCF7
measured.quantity: IC50
experimental.value: 18
--
test.smiles: CCCCCCNc1ccc(-c2cc(=O)c3c(N)cccc3o2)cc1
target.desc: MCF7
measured.quantity: IC50
experimental.value: 0.44

Asked: I am curious: what IC50 value has been reported for CCCCNc1ccc(-c2cc(=O)c3c(N)cccc3o2)cc1 ?
Given back: 0.0087

Asked: Which value of IC50 has been reported for CN(C)c1ccc(-c2cc(=O)c3cc(N)ccc3o2)cc1 in the records?
Given back: 0.035

Asked: // lookup IC50 for CN(C)c1ccc(-c2cc(=O)c3cccc(N)c3o2)cc1
Given back: 2

Asked: Which IC50 value is on record for CC/C(=C(\c1ccccc1)c1ccc(OCCN(C)C)cc1)c1ccccc1 ?
Given back: 19
